# SYSTEM_TESTED: Sushi domains (SD1/2) protein
# PROTOCOL_DETAILS: Fluorescence polarization (FP) competition assay with AJAP-1probe, calculated Ki
# Assay type: binding
# CONDITION_NOTES: Table 11, deep mutational scanning validation variants of AJAP-1WT; read-out: Ki (nM) mean ± SEM
Residues, ends and D or L forms follow the SMILES beside them.
Attribute: Ki
Respond numerically; units are nM and should not be typed.

CC[C@H](C)[C@H](NC(=O)[C@H](Cc1ccccc1)NC(=O)[C@H](CCC(=O)O)NC(=O)[C@@H](NC(=O)[C@H](CCC(=O)O)NC(C)=O)[C@@H](C)O)C(=O)N[C@@H](C)C(=O)N[C@@H](Cc1c[nH]c2ccccc12)C(=O)NCC(=O)N1CCC[C@H]1C(=O)N[C@H](C(=O)NCC(=O)N[C@@H](CC(=O)O)C(=O)N[C@@H](Cc1c[nH]cn1)C(=O)N[C@@H](CC(=O)O)C(N)=O)[C@@H](C)O
39

API: the following record is the query input.
Task: Which Ki reading was recorded for the compound CC[C@H](C)[C@H](NC(=O)[C@H](Cc1ccccc1)NC(=O)[C@H](CO)NC(=O)[C@@H](NC(=O)[C@H](CCC(=O)O)NC(C)=O)[C@@H](C)O)C(=O)N[C@@H](C)C(=O)N[C@@H](Cc1c[nH]c2ccccc12)C(=O)NCC(=O)N1CCC[C@H]1C(=O)N[C@H](C(=O)NCC(=O)N[C@@H](CC(=O)O)C(=O)N[C@@H](CCC(=O)O)C(=O)N[C@@H](CC(=O)O)C(N)=O)[C@@H](C)O [ETSFIAWGPTGDED] (Ac-ETSFIAWGPTGDED-NH2) ?
Output: 34
